# system: IDO1 (Homo sapiens, UniProt P14902)
# Sequence (P14902 whole entry): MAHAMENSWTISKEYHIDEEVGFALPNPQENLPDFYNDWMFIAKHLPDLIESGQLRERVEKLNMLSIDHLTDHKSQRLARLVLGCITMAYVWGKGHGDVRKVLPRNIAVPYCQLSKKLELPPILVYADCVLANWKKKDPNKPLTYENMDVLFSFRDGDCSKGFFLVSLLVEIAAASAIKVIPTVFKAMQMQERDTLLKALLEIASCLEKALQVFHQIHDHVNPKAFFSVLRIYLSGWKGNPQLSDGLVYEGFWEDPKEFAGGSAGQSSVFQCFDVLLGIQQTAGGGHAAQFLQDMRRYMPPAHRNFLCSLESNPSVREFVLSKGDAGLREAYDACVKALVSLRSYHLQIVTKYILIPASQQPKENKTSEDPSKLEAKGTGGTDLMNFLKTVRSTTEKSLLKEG
# assay_info: Hela cell-based IDO1 assay
# condition_notes: Hela cells
pEC50: −log10 of the molar value.
Kindly return TRUE if reported pEC50 is no lower than 6; return FALSE if it is lower.

Query :: # bool: pEC50 of O[C@@H](c1cc(Cl)cc2cncn12)[C@H]1CC[C@H](c2ccc3ccccc3c2)CC1 (single isomer, unassigned) [Example E104b] >= 6
Result :: FALSE

Query :: Is reported pEC50 greater than or equal to 6 here: O[C@@H](c1c(C2CC2)ccn2cncc12)[C@H]1CC[C@H](c2cccc(F)c2)CC1 (single isomer, unassigned) [Example C109b]
Result :: FALSE

Query :: Could you please find out whether OC(c1c(C2CC2)ccc2cncn12)C1CCC(c2cccc(F)c2F)CC1 (stereo not shown) has pEC50 that meets 6 or exceeds it?
Result :: TRUE

Query :: Given the entry O[C@@H](c1c(C2CC2)ccn2cncc12)[C@H]1CC[C@H](c2ccc(F)cc2)CC1 (single isomer, unassigned) [Example C107b] , answer whether its pEC50 meets or surpasses 6.
Result :: FALSE

Query :: Textbook exercise: given the entry OC(c1c(C2CC2)ccc2cncn12)C1CCN(c2ccc(F)c3ncccc23)CC1 (stereo not shown) , state whether its pEC50 is greater than or equal to 6.
Result :: TRUE

Query :: Kindly determine if pEC50 recorded for O[C@@H](c1c(C2CC2)ccn2cncc12)[C@H]1CC[C@H](c2ccc(C(F)(F)F)nc2)CC1 (single isomer, unassigned) [Example C120b] is above or exactly 6.
Result :: FALSE

Query :: Check if pEC50 >= 6 (inclusive). Item: O[C@@H](c1c(C2CC2)ccn2cncc12)[C@H]1CC[C@H](c2ccnc3ccccc32)CC1 (single isomer, unassigned) [Example C130b]
Result :: FALSE

Query :: API: above_or_equal(metric=pEC50, cutoff=6) for item OC(c1c(C2CC2)ccc2cncn12)C1CCC(c2ccc(Cl)cc2)CC1 (stereo not shown)
Result :: TRUE

Query :: Reported pEC50 at or above 6? O[C@@H](c1c(C2CC2)ccc2cncn12)C1CCN(c2ccc(F)c3ncccc23)CC1 (single isomer, unassigned) [Example D175b]
Result :: TRUE

Query :: Please check the record CC(C)c1ccc2cncn2c1C(O)C1CCC(c2cccc(F)c2)CC1 (stereo not shown) and state if its pEC50 is at or above 6.
Result :: TRUE

Query :: Decide: pEC50 of O[C@@H](c1c(C2CC2)ccn2cncc12)[C@H]1CC[C@H](c2ccc(C(F)(F)F)cc2)CC1 (single isomer, unassigned) [Example C115b] >= 6?
Result :: FALSE

Query :: Decide: pEC50 of OC(c1c(C2CC2)ccn2cncc12)C1CCC(c2cccc3ccccc23)CC1 (stereo not shown) >= 6?
Result :: TRUE

Query :: Is reported pEC50 greater than or equal to 6 here: OC(c1c(C2CC2)ccc2cncn12)[C@H]1CC[C@H](c2ccc3ccsc3c2)CC1 (single isomer, unassigned) [Example D134a]
Result :: TRUE

---

# system: UniProtKB P14902
# assay_info: Hela cell-based IDO1 assay
# condition_notes: Hela cells
Structures can show the parent of a compound that is named as a salt.
quantity_name: pEC50
// field semantics: pEC50 = negative decimal log of concentration (mol/L)

Query :: I would be grateful if you could share the reported pEC50 for COc1ccc([C@H]2CC[C@H](C(O)c3c(C4CC4)ccc4cncn34)CC2)cc1Cl (single isomer, unassigned) [Example D148a, hydrochloride] .
Result :: 7.10

Query :: Query: pEC50; subject: CC(C)c1ccc2cncn2c1[C@@H](O)[C@H]1CC[C@H](c2ccc(F)cc2)CC1 (single isomer, unassigned) [Example D166a]
Result :: 7.85

Query :: Which pEC50 value is on record for COCCOc1ccc([C@H]2CC[C@H]([C@H](O)c3c(C4CC4)ccn4cncc34)CC2)cc1 (single isomer, unassigned) [Example C103a] ?
Result :: 6.78

Query :: What value of measured pEC50 is listed for OC(c1c(C2CC2)ccc2cncn12)C1CCN(c2cccc(F)c2)CC1 (centres unmarked) [Example D172] ?
Result :: 7.24

---

# system: IDO1 (Homo sapiens, UniProt P14902)
# assay_info: Hela cell-based IDO1 assay
# condition_notes: Hela cells
Would you kindly list pEC50 for each of these molecules?
Keep it numeric: pEC50 is minus log10 of the concentration in mol/L.

Query :: Could you share which pEC50 value was measured for Cn1cc(-c2ccc(N3CCC(C(O)c4c(C5CC5)ccn5cncc45)CC3)cc2)cn1 (centres unmarked) ?
Result :: 6.28

Query :: What value of pEC50 has been reported for the following molecule? COc1cccc([C@H]2CC[C@H]([C@H](O)c3c(C(C)C)ccc4cncn34)CC2)c1 (single isomer, unassigned) [Example D169a]
Result :: 7.85

Query :: So what does the record say about pEC50 for CNC(=O)c1ccc([C@H]2CC[C@H]([C@H](O)c3c(C4CC4)ccc4cncn34)CC2)cc1 (single isomer, unassigned) [Example D124a] ?
Result :: 6.86

Query :: So what's the measured pEC50 for this one? O[C@@H](c1c(C2CC2)ccc2cncn12)[C@H]1CC[C@H](c2cccc(F)c2)CC1 (single isomer, unassigned) [Example D156b]
Result :: 5.16

Query :: Record request: pEC50 value, item OC(c1c(C2CC2)ccc2cncn12)C1CCN(c2cccc3ncncc23)CC1 (centres unmarked)
Result :: 7.40

Query :: Entry OC(c1c(C2CC2)ccc2cncn12)C1CCC(c2ccc(C(F)(F)F)nc2)CC1 (centres unmarked) : reported pEC50 = ?
Result :: 5.83

Query :: // returns reported pEC50 for input O[C@H](c1c(C2CC2)ccc2cncn12)[C@H]1CC[C@H](c2ccc(OC(F)(F)F)cc2)CC1 (single isomer, unassigned) [Example D105a]
Result :: 6.20

---

# system: UniProtKB P14902
# assay_info: IDO1 enzymatic assay
# Assay type: biochemical
# Design: His tag (N); made in house; host or cells: E. coli
# condition_notes: read-out: Enzyme IC50 IDO1
quantity_name: pIC50
FYI, pIC50 means -log10 of a concentration in mol per litre.

Query :: Please look up its pIC50: `O=C(COc1ccc([C@H]2CC[C@H]([C@H](O)c3c(C4CC4)ccc4cncn34)CC2)cc1)c1ccccc1`
Result :: 7.43

Query :: Value lookup for pIC50; key = OC(c1c(C2CC2)ccn2cncc12)C1CCN(c2ccnc3ccc(F)cc23)CC1 (stereo not drawn)
Result :: 7.46

Query :: Any idea what pIC50 was measured for CC(C)c1ccc2cncn2c1[C@@H](O)[C@H]1CC[C@H](c2ccc(Cl)cc2)CC1 (single isomer, unassigned) [Example D115a] ?
Result :: 7.47

Query :: Which pIC50 value is on record for COc1cccc(C2CCC(C(O)c3c(C4CC4)ccc4cncn34)CC2)c1 (stereo not drawn) ?
Result :: 7.48

Query :: Quick one: pIC50 of Nc1ccc([C@H]2CC[C@H]([C@H](O)c3c(C4CC4)ccc4cncn34)CC2)cc1 (single isomer, unassigned) [Example D122a] ?
Result :: 7.74

Query :: Look up pIC50 for this compound: OC(c1c(C2CC2)ccc2cncn12)C1CCN(c2ccc3ncncc3c2)CC1 (stereo not drawn)
Result :: 7.51

Query :: What does the record list as pIC50 for COc1ccccc1[C@H]1CC[C@H]([C@H](O)c2c(C3CC3)ccn3cncc23)CC1 (single isomer, unassigned) [Example C113a] ?
Result :: 7.55

Query :: pIC50 for OC(c1c(C2CC2)ccn2cncc12)C1CCC(c2ccc(OC3COC3)cc2)CC1 (stereo not drawn) ?
Result :: 7.46

Query :: Query: pIC50; subject: OC(c1c(C2CC2)ccc2cncn12)[C@H]1CC[C@H](c2ccc3ccsc3c2)CC1 (single isomer, unassigned) [Example D134a]
Result :: 7.82

Query :: pIC50 for OC(c1c(C2CC2)ccn2cncc12)C1CCN(c2ccc(F)c3ncccc23)CC1 (single isomer, unassigned) [Example C149b] ?
Result :: 5.62

Query :: Any idea what pIC50 was measured for OC(c1c(C2CC2)ccc2cncn12)C1CCC(c2cccc(F)c2)CC1 (stereo not drawn) ?
Result :: 7.24

Query :: Entry COc1ccc([C@H]2CC[C@H]([C@H](O)c3c(C4CC4)ccc4cncn34)CC2)c(Cl)c1 (single isomer, unassigned) [Example D147a] has what pIC50?
Result :: 7.70

Query :: Look up pIC50: COc1ccc(C2CCC(C(O)c3c(C4CC4)ccn4cncc34)CC2)cc1 (racemic)
Result :: 7.39

Query :: Given OC(c1c(C2CC2)ccc2cncn12)[C@H]1CC[C@H](c2ccc(Cl)cc2)CC1 (single isomer, unassigned) [Example D103c] , state its recorded pIC50.
Result :: 7.66

Query :: Look up pIC50 for this compound: OC(c1c(C2CC2)ccc2cncn12)C1CCC(c2ccc(F)cc2)CC1 (stereo not drawn)
Result :: 7.48

Query :: Form field: reported pIC50 of OC(c1c(C2CC2)ccc2cncn12)C1CCC(c2csc3ccccc23)CC1 (stereo not drawn)
Result :: 7.15

Query :: Request the reported pIC50 associated with CC(C)c1ccc2cncn2c1[C@@H](O)[C@H]1CC[C@H](c2cccc(F)c2)CC1 (single isomer, unassigned) [Example D167a]
Result :: 7.74

Query :: Query (compound): O[C@H](c1c(C2CC2)ccn2cncc12)[C@H]1CC[C@H](c2ccnc3ccccc32)CC1 (single isomer, unassigned) [Example C130a] ; field requested: pIC50
Result :: 7.77

Query :: Given OC(c1c(C2CC2)ccc2cncn12)C1CCN(c2ccc3nccc(Cl)c3c2)CC1 (stereo not drawn) , state its recorded pIC50.
Result :: 7.59

Query :: // lookup pIC50 for OC(c1c(C2CC2)ccc2cncn12)[C@H]1CC[C@H](c2cccc(F)c2F)CC1 (single isomer, unassigned) [Example D132a]
Result :: 7.68

From: patent US10882856B2
